assay: AUC (0 to infinity) in Sprague-Dawley rat at 10 mg/kg, po measured for 5 to 1440 mins by LC-MS/MS analysis; type: ADME, organism-based; conditions: in vivo, time 5-1440 min
measurementName: AUC(0-inf) (ng·h/mL)
Numbers only, in ng·h/mL.

Value of measured AUC(0-inf) for the entry COc1ccc(-c2c(C#N)c(=O)n(Cc3ccccc3)c3c(N[C@H](C)c4ccccn4)cccc23)cc1 : 340

====

test: Clearance in Sprague-Dawley rat at 10 mg/kg, po measured for 5 to 1440 mins by LC-MS/MS analysis; type: ADME, organism-based; settings: in vivo, time 5-1440 min
measurementName: CL/F (mL/min/kg)
Give bare numbers, in mL/min/kg.

Value of measured CL/F for the entry COc1ccc(-c2c(C#N)c(=O)n(Cc3ccccc3)c3c(N[C@H](C)c4ccccn4)cccc23)cc1 : 525

====

target: High affinity cGMP-specific 3',5'-cyclic phosphodiesterase 9A (Homo sapiens, UniProt O76083); test: Inhibition of PDE9A2 (unknown origin) using […] as substrate incubated for 1 hr by fluorescence polarization assay
pIC50: −log10 of the molar value.
measurementName: pIC50

Value of measured pIC50 for the entry COc1ccc(-c2c(C#N)c(=O)n(Cc3ccccc3)c3c(N[C@H](C)c4ccccn4)cccc23)cc1 : < 4.00

====

assay: Cmax in Sprague-Dawley rat at 2 mg/kg, iv measured for 5 to 1440 mins by LC-MS/MS analysis; format: ADME, organism-based; conditions: in vivo, time 5-1440 min
measurementName: Cmax (ng/mL)
Numbers only, in ng/mL.

Value of measured Cmax for the entry COc1ccc(-c2c(C#N)c(=O)n(Cc3ccccc3)c3c(N[C@H](C)c4ccccn4)cccc23)cc1 : 985

====

assay: Half life in rat liver microsomes; assay type: ADME, Microsome
measurementName: half-life (min)
Numbers only, in min.

Value of measured half-life for the entry COc1ccc(-c2c(C#N)c(=O)n(Cc3ccccc3)c3c(N[C@H](C)c4ccccn4)cccc23)cc1 : 4.41

====

biological target: Cytochrome P450 3A4 (Homo sapiens); assay: Inhibition of CYP3A4 (unknown origin); type: ADME
Sequence (P08684 whole entry): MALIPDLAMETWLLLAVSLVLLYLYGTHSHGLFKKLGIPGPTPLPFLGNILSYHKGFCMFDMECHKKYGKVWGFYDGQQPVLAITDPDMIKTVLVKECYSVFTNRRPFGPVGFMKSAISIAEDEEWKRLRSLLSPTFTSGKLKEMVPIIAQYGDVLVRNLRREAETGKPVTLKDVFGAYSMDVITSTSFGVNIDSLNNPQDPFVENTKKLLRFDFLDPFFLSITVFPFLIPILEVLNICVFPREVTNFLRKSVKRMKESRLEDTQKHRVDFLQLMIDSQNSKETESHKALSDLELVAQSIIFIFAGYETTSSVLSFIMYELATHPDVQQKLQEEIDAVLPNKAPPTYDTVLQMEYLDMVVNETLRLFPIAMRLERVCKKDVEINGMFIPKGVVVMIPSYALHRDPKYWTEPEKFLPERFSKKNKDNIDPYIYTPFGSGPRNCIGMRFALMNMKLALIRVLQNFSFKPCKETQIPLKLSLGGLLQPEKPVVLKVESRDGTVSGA
pIC50: −log10 of the molar value.
measurementName: pIC50

Value of measured pIC50 for the entry COc1ccc(-c2c(C#N)c(=O)n(Cc3ccccc3)c3c(N[C@H](C)c4ccccn4)cccc23)cc1 : < 4.30

====

assay: AUC (0 to t) in Sprague-Dawley rat at 10 mg/kg, po measured for 5 to 1440 mins by LC-MS/MS analysis; assay type: ADME, organism-based; details: in vivo, time 5-1440 min
measurementName: AUC(0-t) (ng·h/mL)
One number for each entry, in ng·h/mL.

Value of measured AUC(0-t) for the entry COc1ccc(-c2c(C#N)c(=O)n(Cc3ccccc3)c3c(N[C@H](C)c4ccccn4)cccc23)cc1 : 339

====

assay: MRT (0 to infinity) in Sprague-Dawley rat at 10 mg/kg, po measured for 5 to 1440 mins by LC-MS/MS analysis; assay type: ADME, organism-based; details: in vivo, time 5-1440 min
measurementName: MRT inf (h)
Give bare numbers, in h.

Value of measured MRT inf for the entry COc1ccc(-c2c(C#N)c(=O)n(Cc3ccccc3)c3c(N[C@H](C)c4ccccn4)cccc23)cc1 : 6.4

====

target: Cone cGMP-specific 3',5'-cyclic phosphodiesterase subunit alpha' (Homo sapiens, UniProt P51160); assay: Inhibition of PDE6C (unknown origin) using […] as substrate incubated for 1 hr by fluorescence polarization assay
Sequence (P51160 whole entry): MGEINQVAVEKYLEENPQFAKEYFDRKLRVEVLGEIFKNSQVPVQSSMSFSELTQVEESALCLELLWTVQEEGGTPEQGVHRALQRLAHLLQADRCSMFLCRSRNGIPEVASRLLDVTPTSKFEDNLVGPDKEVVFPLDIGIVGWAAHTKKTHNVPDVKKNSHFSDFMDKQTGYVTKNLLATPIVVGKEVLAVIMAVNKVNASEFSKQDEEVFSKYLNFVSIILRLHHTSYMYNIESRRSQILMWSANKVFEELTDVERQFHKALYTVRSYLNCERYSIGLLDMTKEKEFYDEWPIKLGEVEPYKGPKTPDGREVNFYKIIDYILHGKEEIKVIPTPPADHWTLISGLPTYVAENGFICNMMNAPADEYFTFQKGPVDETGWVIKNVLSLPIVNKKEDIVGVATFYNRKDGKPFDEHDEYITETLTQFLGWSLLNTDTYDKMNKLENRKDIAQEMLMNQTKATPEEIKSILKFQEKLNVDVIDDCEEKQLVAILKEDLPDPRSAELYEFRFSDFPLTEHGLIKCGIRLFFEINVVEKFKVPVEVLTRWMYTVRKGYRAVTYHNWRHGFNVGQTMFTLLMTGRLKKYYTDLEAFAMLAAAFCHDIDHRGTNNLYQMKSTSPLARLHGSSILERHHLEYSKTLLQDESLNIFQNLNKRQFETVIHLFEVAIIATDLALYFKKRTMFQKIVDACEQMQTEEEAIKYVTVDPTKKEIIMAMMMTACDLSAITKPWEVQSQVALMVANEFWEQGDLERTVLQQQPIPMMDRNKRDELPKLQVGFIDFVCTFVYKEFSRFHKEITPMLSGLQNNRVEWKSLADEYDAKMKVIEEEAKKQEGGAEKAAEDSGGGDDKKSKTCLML
measurementName: IC50 (nM)
Answers are plain numbers, in nM.

Value of measured IC50 for the entry COc1ccc(-c2c(C#N)c(=O)n(Cc3ccccc3)c3c(N[C@H](C)c4ccccn4)cccc23)cc1 : 20

====

test: Half life in Sprague-Dawley rat at 10 mg/kg, po measured for 5 to 1440 mins by LC-MS/MS analysis; assay type: ADME, organism-based; settings: in vivo, time 5-1440 min
measurementName: half-life
Form entry: enter the amount, then its unit.

Value of measured half-life for the entry COc1ccc(-c2c(C#N)c(=O)n(Cc3ccccc3)c3c(N[C@H](C)c4ccccn4)cccc23)cc1 : 2.79 h

====

molecular target: Voltage-gated inwardly rectifying potassium channel KCNH2 (Homo sapiens)
Sequence (Q12809 whole entry): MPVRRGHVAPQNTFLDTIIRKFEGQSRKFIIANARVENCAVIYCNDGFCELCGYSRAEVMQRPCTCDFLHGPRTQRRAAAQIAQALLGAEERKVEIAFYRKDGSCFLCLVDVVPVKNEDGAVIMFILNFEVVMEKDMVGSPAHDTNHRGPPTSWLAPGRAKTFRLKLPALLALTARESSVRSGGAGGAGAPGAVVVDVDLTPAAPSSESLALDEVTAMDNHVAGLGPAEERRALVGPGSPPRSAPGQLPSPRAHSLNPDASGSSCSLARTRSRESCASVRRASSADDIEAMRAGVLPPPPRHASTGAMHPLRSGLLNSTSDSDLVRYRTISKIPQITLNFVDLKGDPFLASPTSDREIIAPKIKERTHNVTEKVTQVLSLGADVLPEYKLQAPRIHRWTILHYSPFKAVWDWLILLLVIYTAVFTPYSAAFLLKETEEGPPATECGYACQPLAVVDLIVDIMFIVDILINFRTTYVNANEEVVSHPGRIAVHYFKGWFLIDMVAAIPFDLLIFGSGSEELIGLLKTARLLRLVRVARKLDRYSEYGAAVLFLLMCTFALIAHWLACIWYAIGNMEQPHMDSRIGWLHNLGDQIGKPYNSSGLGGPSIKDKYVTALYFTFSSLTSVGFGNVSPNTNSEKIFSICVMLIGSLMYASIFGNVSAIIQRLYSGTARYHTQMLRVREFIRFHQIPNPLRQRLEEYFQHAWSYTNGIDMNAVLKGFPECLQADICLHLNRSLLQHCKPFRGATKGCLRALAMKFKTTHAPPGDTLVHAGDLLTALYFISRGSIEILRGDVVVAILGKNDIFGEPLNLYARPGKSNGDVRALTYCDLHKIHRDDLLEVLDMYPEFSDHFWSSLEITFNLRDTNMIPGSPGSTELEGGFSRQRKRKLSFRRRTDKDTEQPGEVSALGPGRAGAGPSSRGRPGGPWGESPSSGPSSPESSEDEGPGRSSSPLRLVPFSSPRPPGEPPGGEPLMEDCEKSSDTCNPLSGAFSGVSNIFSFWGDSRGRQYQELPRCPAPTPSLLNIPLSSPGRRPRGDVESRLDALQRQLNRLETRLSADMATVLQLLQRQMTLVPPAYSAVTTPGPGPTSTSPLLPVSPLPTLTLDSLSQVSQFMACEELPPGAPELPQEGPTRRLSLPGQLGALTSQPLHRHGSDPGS
pIC50: −log10 of the molar value.
measurementName: pIC50

Value of measured pIC50 for the entry COc1ccc(-c2c(C#N)c(=O)n(Cc3ccccc3)c3c(N[C@H](C)c4ccccn4)cccc23)cc1 : < 4.52

====

experiment: MRT (0 to infinity) in Sprague-Dawley rat at 2 mg/kg, iv measured for 5 to 1440 mins by LC-MS/MS analysis; assay type: ADME, organism-based; conditions: in vivo, time 5-1440 min
measurementName: MRT inf (min)
Give bare numbers, in min.

Value of measured MRT inf for the entry COc1ccc(-c2c(C#N)c(=O)n(Cc3ccccc3)c3c(N[C@H](C)c4ccccn4)cccc23)cc1 : 45.6

====

target: Cytochrome P450 2D6 (Homo sapiens)
pIC50: −log10 of the molar value.
measurementName: pIC50

Simply: COc1ccc(-c2c(C#N)c(=O)n(Cc3ccccc3)c3c(N[C@H](C)c4ccccn4)cccc23)cc1 , Cytochrome P450 2D6 (Homo sapiens), pIC50 = < 4.30

====

List of pIC50 tested on UniProt:O76074.
One number for each entry, as −log10 of the molar value.

Answered examples (2):
1. Cc1ccc(-c2c(C#N)c(=O)n(Cc3ccccc3)c3ccc(NC(C)c4ccccn4)cc23)cc1 (configuration not stated) : 6.54
2. Cc1ccc(-c2c(C#N)c(=O)n(CC3CCCC3)c3c(NC(C)c4ccccn4)cccc23)cc1 (configuration not stated) : 7.26

Hi team, please reply with pIC50 for each item in this list.
1. COc1ccc(-c2c(C#N)c(=O)n(Cc3ccccc3)c3c(N[C@H](C)c4ccccn4)cccc23)cc1
2. Cc1ccc(-c2c(C#N)c(=O)n(Cc3ccccc3)c3c(NC(C)c4ccccn4)cccc23)cc1 (configuration not stated)
3. CC(C)c1c(C#N)c(=O)n(Cc2ccccc2)c2c(NC(C)c3ccccn3)cccc12 (configuration not stated)
4. Cc1ccc(-c2c(C#N)c(=O)n(Cc3ccncc3)c3c(N[C@H](C)c4ccccn4)cccc23)cc1

1: 8.52; 2: 8.00; 3: 7.41; 4: 7.14

Value of measured pIC50 for the entry Cc1ccc(-c2c(C#N)c(=O)n(Cc3ccc4c(c3)OCO4)c3c(NC(C)c4ccccn4)cccc23)cc1 (configuration not stated) : 6.70

====

molecular target: 3',5'-cyclic-AMP phosphodiesterase 4D (Homo sapiens, UniProt Q08499)
Sequence (Q08499 whole entry): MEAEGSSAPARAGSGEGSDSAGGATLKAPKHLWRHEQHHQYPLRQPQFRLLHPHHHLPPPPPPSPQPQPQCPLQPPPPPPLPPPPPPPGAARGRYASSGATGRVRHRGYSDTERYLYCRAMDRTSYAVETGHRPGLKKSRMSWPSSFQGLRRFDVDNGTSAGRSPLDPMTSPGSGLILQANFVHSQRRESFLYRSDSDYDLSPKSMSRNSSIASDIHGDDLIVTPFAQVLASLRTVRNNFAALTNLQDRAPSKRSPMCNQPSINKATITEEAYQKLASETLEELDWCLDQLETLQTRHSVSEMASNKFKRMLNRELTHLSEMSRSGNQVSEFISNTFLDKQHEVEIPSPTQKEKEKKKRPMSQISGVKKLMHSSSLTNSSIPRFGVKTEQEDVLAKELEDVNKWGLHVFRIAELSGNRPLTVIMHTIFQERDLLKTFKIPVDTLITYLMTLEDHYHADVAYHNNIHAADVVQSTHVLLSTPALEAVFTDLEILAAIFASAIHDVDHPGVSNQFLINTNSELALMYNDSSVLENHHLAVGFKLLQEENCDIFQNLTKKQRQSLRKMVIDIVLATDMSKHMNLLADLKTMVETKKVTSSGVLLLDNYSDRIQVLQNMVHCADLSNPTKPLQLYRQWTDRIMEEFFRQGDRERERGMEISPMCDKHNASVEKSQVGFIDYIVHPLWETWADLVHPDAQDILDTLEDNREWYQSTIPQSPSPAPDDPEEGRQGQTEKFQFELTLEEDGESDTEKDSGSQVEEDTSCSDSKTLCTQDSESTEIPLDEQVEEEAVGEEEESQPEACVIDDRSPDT
measurementName: IC50 (µM)
Give bare numbers, in µM.

Value of measured IC50 for the entry COc1ccc(-c2c(C#N)c(=O)n(Cc3ccccc3)c3c(N[C@H](C)c4ccccn4)cccc23)cc1 : 53.3

====

target: cGMP-inhibited 3',5'-cyclic phosphodiesterase 3A (Homo sapiens)
Sequence (Q14432 whole entry): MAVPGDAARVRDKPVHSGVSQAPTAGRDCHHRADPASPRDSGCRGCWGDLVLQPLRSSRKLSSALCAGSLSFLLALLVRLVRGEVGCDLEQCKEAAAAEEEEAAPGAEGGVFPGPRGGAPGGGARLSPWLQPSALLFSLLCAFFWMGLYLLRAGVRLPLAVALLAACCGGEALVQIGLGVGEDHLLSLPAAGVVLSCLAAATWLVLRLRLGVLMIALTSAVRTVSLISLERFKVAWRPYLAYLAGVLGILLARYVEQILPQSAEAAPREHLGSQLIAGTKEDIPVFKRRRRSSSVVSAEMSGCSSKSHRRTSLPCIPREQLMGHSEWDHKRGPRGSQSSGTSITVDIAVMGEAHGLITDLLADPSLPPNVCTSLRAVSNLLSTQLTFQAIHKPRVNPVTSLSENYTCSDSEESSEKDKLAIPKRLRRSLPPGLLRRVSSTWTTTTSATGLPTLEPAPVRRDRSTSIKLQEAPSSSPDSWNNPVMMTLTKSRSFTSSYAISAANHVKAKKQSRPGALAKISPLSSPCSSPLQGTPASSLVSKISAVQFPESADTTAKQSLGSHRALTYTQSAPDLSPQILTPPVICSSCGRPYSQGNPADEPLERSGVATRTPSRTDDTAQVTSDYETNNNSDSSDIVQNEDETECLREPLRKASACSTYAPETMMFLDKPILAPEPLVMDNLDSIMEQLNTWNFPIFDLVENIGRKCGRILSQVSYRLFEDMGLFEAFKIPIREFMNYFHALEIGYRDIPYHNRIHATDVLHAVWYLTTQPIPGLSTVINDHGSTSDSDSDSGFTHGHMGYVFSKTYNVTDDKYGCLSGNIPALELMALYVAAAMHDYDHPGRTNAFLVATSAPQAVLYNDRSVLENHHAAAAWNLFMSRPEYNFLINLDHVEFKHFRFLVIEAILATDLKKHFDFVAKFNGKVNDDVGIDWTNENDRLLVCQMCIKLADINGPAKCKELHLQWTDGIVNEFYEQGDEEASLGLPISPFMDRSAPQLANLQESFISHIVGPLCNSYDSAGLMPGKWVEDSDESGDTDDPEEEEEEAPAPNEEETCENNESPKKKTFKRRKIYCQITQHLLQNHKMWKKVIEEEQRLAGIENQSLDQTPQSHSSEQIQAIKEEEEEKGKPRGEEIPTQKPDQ
measurementName: IC50

Value of measured IC50 for the entry COc1ccc(-c2c(C#N)c(=O)n(Cc3ccccc3)c3c(N[C@H](C)c4ccccn4)cccc23)cc1 : > 100 µM

====

test: MRT (0 to t) in Sprague-Dawley rat at 10 mg/kg, po measured for 5 to 1440 mins by LC-MS/MS analysis; format: ADME, organism-based; conditions: in vivo, time 5-1440 min
measurementName: MRT last (h)
Numbers only, in h.

Value of measured MRT last for the entry COc1ccc(-c2c(C#N)c(=O)n(Cc3ccccc3)c3c(N[C@H](C)c4ccccn4)cccc23)cc1 : 6.3

====

biological target: High affinity 3',5'-cyclic-AMP phosphodiesterase 7A (Homo sapiens)
Sequence (Q13946 whole entry): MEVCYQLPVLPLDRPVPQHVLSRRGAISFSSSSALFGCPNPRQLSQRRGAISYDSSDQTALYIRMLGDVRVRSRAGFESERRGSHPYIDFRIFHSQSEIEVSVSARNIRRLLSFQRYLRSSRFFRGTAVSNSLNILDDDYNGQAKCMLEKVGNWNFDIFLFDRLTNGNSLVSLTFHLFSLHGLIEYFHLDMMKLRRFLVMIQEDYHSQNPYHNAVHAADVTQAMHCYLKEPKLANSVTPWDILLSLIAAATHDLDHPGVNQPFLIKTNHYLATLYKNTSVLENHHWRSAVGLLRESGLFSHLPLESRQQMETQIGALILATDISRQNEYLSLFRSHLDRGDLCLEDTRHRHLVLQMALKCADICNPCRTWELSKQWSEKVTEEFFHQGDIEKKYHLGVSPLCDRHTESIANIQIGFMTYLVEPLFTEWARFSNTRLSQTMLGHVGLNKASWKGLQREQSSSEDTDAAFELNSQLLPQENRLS
measurementName: pIC50
One number for each entry, as −log10 of the molar value.

Value of measured pIC50 for the entry COc1ccc(-c2c(C#N)c(=O)n(Cc3ccccc3)c3c(N[C@H](C)c4ccccn4)cccc23)cc1 : 4.59

====

Molecular target: Cytochrome P450 1A2 (Homo sapiens)
Sequence (P05177 whole entry): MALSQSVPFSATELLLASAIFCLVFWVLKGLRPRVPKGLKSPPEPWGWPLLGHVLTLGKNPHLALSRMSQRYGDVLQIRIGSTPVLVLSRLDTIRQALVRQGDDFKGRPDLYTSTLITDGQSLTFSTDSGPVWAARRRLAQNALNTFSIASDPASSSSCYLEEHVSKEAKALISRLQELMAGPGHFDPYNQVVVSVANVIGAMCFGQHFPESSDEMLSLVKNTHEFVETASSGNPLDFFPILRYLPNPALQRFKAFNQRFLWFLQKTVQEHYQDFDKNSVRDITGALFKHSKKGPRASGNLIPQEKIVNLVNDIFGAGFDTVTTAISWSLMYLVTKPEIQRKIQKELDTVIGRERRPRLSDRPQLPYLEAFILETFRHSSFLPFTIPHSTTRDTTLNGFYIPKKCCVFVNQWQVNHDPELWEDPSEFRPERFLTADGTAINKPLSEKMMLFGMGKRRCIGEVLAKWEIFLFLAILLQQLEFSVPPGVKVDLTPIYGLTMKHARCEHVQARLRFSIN
measurementName: IC50

Value of measured IC50 for the entry COc1ccc(-c2c(C#N)c(=O)n(Cc3ccccc3)c3c(N[C@H](C)c4ccccn4)cccc23)cc1 : > 50 µM

All values here come from ChEMBL document CHEMBL6078681.
